The measured values listed here are drawn from ChEMBL document CHEMBL5338717.

# SYSTEM TESTED: High affinity 3',5'-cyclic-AMP phosphodiesterase 7A (Homo sapiens, UniProt Q13946)
# Sequence (Q13946 whole entry, the tested form may be a part): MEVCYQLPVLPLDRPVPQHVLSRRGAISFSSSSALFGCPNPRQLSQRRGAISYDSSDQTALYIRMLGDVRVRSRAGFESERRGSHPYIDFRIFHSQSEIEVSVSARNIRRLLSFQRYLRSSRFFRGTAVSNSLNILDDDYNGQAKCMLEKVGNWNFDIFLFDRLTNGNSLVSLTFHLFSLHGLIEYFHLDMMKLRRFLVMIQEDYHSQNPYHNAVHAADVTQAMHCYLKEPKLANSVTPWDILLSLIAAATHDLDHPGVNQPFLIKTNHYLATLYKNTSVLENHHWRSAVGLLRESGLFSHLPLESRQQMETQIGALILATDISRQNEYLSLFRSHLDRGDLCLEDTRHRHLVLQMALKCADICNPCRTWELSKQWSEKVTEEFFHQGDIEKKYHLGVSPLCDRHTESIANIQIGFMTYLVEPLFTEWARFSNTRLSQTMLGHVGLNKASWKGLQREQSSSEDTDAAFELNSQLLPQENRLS
# MEASUREMENT NOTES: Inhibition of recombinant PDE7A1 (130 to 482 residues) (unknown origin) expressed in Escherichia coli BL21 using [3H]cAMP as substrate incubated for 15 mins by liquid scintillation method
ENDPOINT: IC50
Note: state the figure and append the unit.

Entry COc1c(OCC2CC2)cc2oc3cc4c(c(OCc5ccncc5)c3c(=O)c2c1CC=C(C)C)C=CC(C)(C)O4 has what IC50?
15 nM

====

# SYSTEM TESTED: UniProt Q12809
# Sequence (Q12809 whole entry): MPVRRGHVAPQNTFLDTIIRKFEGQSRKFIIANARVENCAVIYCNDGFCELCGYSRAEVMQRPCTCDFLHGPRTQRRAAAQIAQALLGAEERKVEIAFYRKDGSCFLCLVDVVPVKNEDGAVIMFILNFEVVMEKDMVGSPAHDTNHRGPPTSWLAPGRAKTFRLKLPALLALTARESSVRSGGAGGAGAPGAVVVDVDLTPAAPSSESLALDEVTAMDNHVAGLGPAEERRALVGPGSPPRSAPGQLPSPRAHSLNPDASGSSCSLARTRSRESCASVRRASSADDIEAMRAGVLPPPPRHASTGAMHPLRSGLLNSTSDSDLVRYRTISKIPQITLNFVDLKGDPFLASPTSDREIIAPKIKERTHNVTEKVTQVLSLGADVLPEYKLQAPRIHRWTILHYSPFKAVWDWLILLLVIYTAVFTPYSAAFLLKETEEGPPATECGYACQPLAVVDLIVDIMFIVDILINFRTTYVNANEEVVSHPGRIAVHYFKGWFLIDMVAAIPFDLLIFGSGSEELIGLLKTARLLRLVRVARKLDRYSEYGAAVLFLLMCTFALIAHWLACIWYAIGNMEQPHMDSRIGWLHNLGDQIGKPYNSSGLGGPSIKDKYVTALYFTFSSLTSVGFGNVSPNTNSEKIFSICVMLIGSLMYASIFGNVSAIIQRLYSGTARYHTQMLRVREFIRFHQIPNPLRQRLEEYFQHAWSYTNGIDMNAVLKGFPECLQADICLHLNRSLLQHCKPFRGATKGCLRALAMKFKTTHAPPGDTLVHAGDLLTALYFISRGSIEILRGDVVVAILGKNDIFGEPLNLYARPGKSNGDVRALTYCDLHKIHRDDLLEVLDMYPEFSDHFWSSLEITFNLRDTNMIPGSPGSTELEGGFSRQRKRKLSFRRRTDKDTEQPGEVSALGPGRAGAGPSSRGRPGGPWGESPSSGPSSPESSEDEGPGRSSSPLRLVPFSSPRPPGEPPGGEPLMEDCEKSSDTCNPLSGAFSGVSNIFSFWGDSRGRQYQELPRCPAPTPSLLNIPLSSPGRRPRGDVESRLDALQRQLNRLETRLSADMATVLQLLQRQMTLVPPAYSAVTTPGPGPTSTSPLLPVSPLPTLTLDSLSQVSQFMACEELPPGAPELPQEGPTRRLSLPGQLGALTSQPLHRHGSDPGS
pIC50: −log10 of the molar value.
ENDPOINT: pIC50

Entry COc1c(OCC2CC2)cc2oc3cc4c(c(OCc5ccncc5)c3c(=O)c2c1CC=C(C)C)C=CC(C)(C)O4 has what pIC50?
< 4.40

====

# SYSTEM TESTED: 3',5'-cyclic-AMP phosphodiesterase 4D (Homo sapiens)
# Sequence (Q08499 whole entry, the tested form may be a part): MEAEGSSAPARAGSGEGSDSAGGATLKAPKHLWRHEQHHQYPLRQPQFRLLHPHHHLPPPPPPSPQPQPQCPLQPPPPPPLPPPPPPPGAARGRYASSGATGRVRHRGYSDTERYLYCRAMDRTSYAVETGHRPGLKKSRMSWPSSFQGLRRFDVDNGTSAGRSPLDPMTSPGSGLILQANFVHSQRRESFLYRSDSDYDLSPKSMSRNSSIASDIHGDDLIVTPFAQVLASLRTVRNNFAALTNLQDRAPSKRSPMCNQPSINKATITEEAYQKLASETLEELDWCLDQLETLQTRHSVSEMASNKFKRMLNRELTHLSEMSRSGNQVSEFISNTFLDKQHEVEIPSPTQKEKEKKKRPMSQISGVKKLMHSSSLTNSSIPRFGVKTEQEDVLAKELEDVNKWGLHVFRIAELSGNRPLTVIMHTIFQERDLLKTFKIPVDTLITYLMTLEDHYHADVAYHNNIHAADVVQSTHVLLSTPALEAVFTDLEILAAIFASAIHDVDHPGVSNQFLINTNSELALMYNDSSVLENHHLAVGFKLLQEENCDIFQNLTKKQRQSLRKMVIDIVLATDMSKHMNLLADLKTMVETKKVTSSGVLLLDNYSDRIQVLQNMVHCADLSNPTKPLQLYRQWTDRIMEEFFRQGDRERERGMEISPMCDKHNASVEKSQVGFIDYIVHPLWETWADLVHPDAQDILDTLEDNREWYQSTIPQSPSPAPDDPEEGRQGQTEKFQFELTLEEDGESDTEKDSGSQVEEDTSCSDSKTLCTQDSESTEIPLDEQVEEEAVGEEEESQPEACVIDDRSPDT
# MEASUREMENT NOTES: Inhibition of recombinant PDE4D2 (86 to 413 residues) (unknown origin) expressed in Escherichia coli BL21 using [3H]cAMP as substrate incubated for 15 mins by liquid scintillation method
ENDPOINT: pIC50
Would you please state pIC50, meaning minus log10 of the concentration in mol/L, as a bare number?

Worked cases, answers included:
COc1c(OCc2ccc(F)cc2)cc2oc3cc4c(c(OCC5CCNCC5)c3c(=O)c2c1CC=C(C)C)C=CC(C)(C)O4 | 7.91
COc1c(OCc2ccncc2)cc2oc3cc4c(c(OCc5ccncc5)c3c(=O)c2c1CC=C(C)C)C=CC(C)(C)O4 | 7.97
COc1c(O)cc2oc3cc4c(c(OCc5ccncc5)c3c(=O)c2c1CC=C(C)C)C=CC(C)(C)O4 | 7.60
COc1c(OCc2ccccc2)cc2oc3cc4c(c(OCc5ccncc5)c3c(=O)c2c1CC=C(C)C)C=CC(C)(C)O4 | 8.85
COc1c(OCc2cccc(F)c2)cc2oc3cc4c(c(OCc5ccccn5)c3c(=O)c2c1CC=C(C)C)C=CC(C)(C)O4 | 8.03

Entry COc1c(OCc2ccc(F)cc2)cc2oc3cc4c(c(OCc5ccncc5)c3c(=O)c2c1CC=C(C)C)C=CC(C)(C)O4 has what pIC50?
8.85

Entry COc1c(OCC2CC2)cc2oc3cc4c(c(OCc5ccncc5)c3c(=O)c2c1CC=C(C)C)C=CC(C)(C)O4 has what pIC50?
8.46

Entry COc1cc2oc3cc4c(c(OCc5ccncc5)c3c(=O)c2c(CC=C(C)C)c1OC)C=CC(C)(C)O4 has what pIC50?
7.93

Entry COc1c(OC(C)C)cc2oc3cc4c(c(OCc5ccncc5)c3c(=O)c2c1CC=C(C)C)C=CC(C)(C)O4 has what pIC50?
8.28

====

# MEASUREMENT NOTES: MRT(0 to 24 hrs) in Sprague-Dawley rat at 2.5 mg/kg, iv
# Assay type: ADME, organism-based
# STUDY CONDITIONS: in vivo
ENDPOINT: MRT last
Note: state the figure and append the unit.

Entry COc1c(OCC2CC2)cc2oc3cc4c(c(OCc5ccncc5)c3c(=O)c2c1CC=C(C)C)C=CC(C)(C)O4 has what MRT last?
1.76 h

====

# SYSTEM TESTED: Cytochrome P450 1A2 (Homo sapiens, UniProt P05177)
# Sequence (P05177 whole entry): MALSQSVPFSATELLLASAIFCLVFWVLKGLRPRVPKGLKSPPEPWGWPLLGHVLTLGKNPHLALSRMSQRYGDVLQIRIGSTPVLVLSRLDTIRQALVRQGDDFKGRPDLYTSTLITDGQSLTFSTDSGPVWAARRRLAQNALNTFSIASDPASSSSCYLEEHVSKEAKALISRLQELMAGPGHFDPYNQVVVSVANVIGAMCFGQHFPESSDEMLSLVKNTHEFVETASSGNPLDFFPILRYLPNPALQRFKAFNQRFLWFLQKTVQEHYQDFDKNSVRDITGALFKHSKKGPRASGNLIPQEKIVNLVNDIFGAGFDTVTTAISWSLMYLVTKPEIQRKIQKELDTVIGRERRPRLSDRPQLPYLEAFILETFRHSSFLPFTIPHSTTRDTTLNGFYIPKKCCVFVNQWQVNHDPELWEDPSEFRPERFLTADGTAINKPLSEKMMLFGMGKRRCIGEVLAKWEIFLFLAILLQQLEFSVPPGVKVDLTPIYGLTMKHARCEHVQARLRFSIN
# MEASUREMENT NOTES: Inhibition of human CYP1A2 in human hepatocytes
# Format: ADME, cell-based, Hepatocyte
pIC50: −log10 of the molar value.
ENDPOINT: pIC50

Lab note: need pIC50 with Cytochrome P450 1A2 (Homo sapiens, UniProt P05177) for entry COc1c(OCC2CC2)cc2oc3cc4c(c(OCc5ccncc5)c3c(=O)c2c1CC=C(C)C)C=CC(C)(C)O4 , please look it up.
< 4.60

====

# SYSTEM TESTED: 3',5'-cyclic-AMP phosphodiesterase 4D (Homo sapiens)
# MEASUREMENT NOTES: Inhibition of recombinant PDE4D2 (86 to 413 residues) (unknown origin) expressed in Escherichia coli BL21 using [3H]cAMP as substrate incubated for 15 mins by liquid scintillation method
ENDPOINT: IC50 (nM)
Kindly provide the numeric value in nM only, without the unit symbol.

COc1c(OCc2ccc(F)cc2)cc2oc3cc4c(c(OCc5ccccn5)c3c(=O)c2c1CC=C(C)C)C=CC(C)(C)O4 | 20.2
COc1c(OCc2cccc(F)c2)cc2oc3cc4c(c(OCc5ccncc5)c3c(=O)c2c1CC=C(C)C)C=CC(C)(C)O4 | 7.8
COc1c(O)cc2oc3cc4c(c(OCc5ccccn5)c3c(=O)c2c1CC=C(C)C)C=CC(C)(C)O4 | 203

Entry CCOc1cc2oc3cc4c(c(OCc5ccncc5)c3c(=O)c2c(CC=C(C)C)c1OC)C=CC(C)(C)O4 has what IC50?
10.2

Entry COc1c(OCc2ccccn2)cc2oc3cc4c(c(OCc5ccccn5)c3c(=O)c2c1CC=C(C)C)C=CC(C)(C)O4 has what IC50?
6.5

Entry COc1c(OCc2ccc(F)cc2)cc2oc3cc4c(c(OCc5cccnc5)c3c(=O)c2c1CC=C(C)C)C=CC(C)(C)O4 has what IC50?
8.2

====

# SYSTEM TESTED: High affinity cGMP-specific 3',5'-cyclic phosphodiesterase 9A (Homo sapiens, UniProt O76083)
# Sequence (O76083 whole entry, the tested form may be a part): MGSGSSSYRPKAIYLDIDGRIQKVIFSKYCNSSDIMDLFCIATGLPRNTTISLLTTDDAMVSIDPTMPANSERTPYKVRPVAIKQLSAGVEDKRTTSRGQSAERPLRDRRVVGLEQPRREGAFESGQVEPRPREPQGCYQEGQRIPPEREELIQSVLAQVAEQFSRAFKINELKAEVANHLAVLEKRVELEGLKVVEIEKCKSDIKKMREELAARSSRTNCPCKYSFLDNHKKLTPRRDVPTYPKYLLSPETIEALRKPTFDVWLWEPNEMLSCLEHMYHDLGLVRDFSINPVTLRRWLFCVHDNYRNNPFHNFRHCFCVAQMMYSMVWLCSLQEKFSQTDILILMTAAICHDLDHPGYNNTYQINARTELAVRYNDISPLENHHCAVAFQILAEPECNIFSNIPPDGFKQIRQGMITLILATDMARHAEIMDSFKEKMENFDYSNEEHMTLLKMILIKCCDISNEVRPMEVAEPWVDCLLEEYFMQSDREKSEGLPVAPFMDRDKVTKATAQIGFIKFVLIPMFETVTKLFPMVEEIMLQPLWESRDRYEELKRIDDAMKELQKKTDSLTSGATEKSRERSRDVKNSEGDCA
# MEASUREMENT NOTES: Inhibition of recombinant PDE9A2 (181 to 506 residues) (unknown origin) expressed in Escherichia coli BL21 using [3H]cGMP as substrate incubated for 15 mins by liquid scintillation method
pIC50: −log10 of the molar value.
ENDPOINT: pIC50

Entry COc1c(OCC2CC2)cc2oc3cc4c(c(OCc5ccncc5)c3c(=O)c2c1CC=C(C)C)C=CC(C)(C)O4 has what pIC50?
< 5.00

====

# MEASUREMENT NOTES: Inhibition of PDE7 (unknown origin)
# Parameters: species or system Homo sapiens
ENDPOINT: IC50
Note: state the figure and append the unit.

Entry OCCN(CCO)c1nc(N2CCCCC2)c2nc(N(CCO)CCO)nc(N3CCCCC3)c2n1 has what IC50?
600 nM
